Origin of values: paper PMC6804264

Assay: In vivo pharmacokinetics after oral (intragastric) administration
Conditions: male, Wistar, rat, rats, 40 mg/kg NMS, plasma, n = 3
Measured Property: AUC(0-t)
Param answer (str): number followed by unit.

Query :: Please give the documented AUC(0-t) of CS(=O)(=O)Nc1ccc([N+](=O)[O-])cc1Oc1ccccc1 [NMS, nimesulide]
Result :: 199 µg·h/mL
